assay_method_text: qHTS to identify inhibitors of the type 1 interferon - major histocompatibility complex class I in skeletal muscle: primary screen against the NCATS Mechanism Interrogation Plate v5.0 (MIPE) Libary (AID 1347411); also: nearly all actives have a fitted effect of over 65% in size
condition_context: iHSKM cells + IFN-b, HiBiT-tagged MHC-I luminescence, 24 h; series mostly up to 45.8 µM
Inconclusive results are not listed. Active and inactive are the calls of the source. Calls follow the shape of the dose curve; as a rule, active = well fitted inhibition curve with a large enough effect; inconclusive = small, poorly fitted or top-dose-only effect; inactive = no such curve, though single readings can be large or run the other way.
Classes used: active, inactive

>  <molecule>
Nc1cc(COc2c(Cl)cc(C[C@H](N)C(=O)O)cc2Cl)c2oc(-c3ccccc3)nc2c1

>  <label_value>
inactive

$$$$
>  <molecule>
Cc1[nH]cnc1CN1CCN(C(=O)N[C@@H](CC(C)C)C(=O)O)[C@@H](Cc2ccccc2)C1=O

>  <label_value>
inactive

$$$$
>  <molecule>
CC(C)(C)c1[nH]cnc1/C=c1\[nH]c(=O)/c(=C/c2ccccc2)[nH]c1=O

>  <label_value>
inactive

$$$$
>  <molecule>
CC(C)OC(=O)[C@H](C)N[P@](=O)(OC[C@H]1O[C@@H](n2ccc(=O)[nH]c2=O)[C@](C)(F)[C@@H]1O)Oc1ccccc1

>  <label_value>
inactive

$$$$
>  <molecule>
C[C@@H]1Cc2c([nH]c3ccccc23)[C@@H](c2c(F)cc(/C=C/C(=O)O)cc2F)N1CC(C)(C)F

>  <label_value>
inactive

$$$$
>  <molecule>
C[C@@H]1C(=O)OC2[C@H](O)[C@]34[C@H]5C[C@@H](C(C)(C)C)[C@]36[C@@H](OC(=O)[C@@H]6O)O[C@@]4(C(=O)O5)[C@]21O (stereo partly drawn)

>  <label_value>
inactive

$$$$
>  <molecule>
C=CC(=O)N1CC(N2CCN(C(=O)CNc3cc(C4(C)CC4)c(Cl)cc3O)CC2)C1

>  <label_value>
inactive

$$$$
>  <molecule>
CNc1nc(-c2ccc3c(N)n[nH]c3c2)cc(N2C[C@@H](C(=O)NC3CCCCC3)CC[C@H]2C)n1

>  <label_value>
active

$$$$
